- target.or.test.system: Recombinant His-tagged NAMPT (Homo sapiens)
- Construct: His; host or cells: E. coli
- Sequence (P43490 whole entry): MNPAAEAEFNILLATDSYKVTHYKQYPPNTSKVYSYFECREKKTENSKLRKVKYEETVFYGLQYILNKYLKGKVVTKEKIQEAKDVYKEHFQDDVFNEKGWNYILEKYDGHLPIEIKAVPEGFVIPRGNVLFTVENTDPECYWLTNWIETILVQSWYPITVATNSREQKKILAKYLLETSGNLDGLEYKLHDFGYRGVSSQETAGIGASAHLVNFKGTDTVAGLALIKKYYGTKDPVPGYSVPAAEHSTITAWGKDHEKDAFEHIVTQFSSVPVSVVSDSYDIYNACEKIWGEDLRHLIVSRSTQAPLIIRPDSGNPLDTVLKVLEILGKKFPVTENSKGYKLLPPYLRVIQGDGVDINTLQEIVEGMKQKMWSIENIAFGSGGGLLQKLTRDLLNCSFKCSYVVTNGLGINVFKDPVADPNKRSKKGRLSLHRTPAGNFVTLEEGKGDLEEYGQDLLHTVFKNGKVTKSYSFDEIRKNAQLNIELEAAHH
- experimental.protocol: Biochemical inhibition assay: NAMPT enzymatic reaction, NMN quantified by mass spectrometry
- condition.info: 33 nM NAMPT, 1 μM NAM, 100 μM PRPP, 2.5 mM ATP, 30 minutes at room temperature; read-out: Biochem IC50
measured.parameter: pIC50
A value of pIC50 is the negative decimal logarithm of a concentration given in moles per litre.

compound_structure_string=COc1ccc(OC)c(C(=O)N2CCC(CCCCNC(=O)c3cc4ccncc4s3)CC2)c1 meas_value=8.26
compound_structure_string=O=C(NCCCCC1CCN(C(=O)c2cc(Cl)ccc2Cl)CC1)c1ccc2nccn2c1 meas_value=7.99
compound_structure_string=COc1ccc(C(=O)N2CCC(CCCCNC(=O)c3ccc4nccn4c3)CC2)cc1F meas_value=7.69
compound_structure_string=Cc1ccc(C(=O)N2CCC(CCCCNC(=O)c3ccc4nccn4c3)CC2)cc1F meas_value=7.40
compound_structure_string=O=C(NCCCCC1CCN(C(=O)c2ccccc2OC(F)(F)F)CC1)c1ccc2nccn2c1 meas_value=8.60
compound_structure_string=COc1cc(OC)cc(C(=O)N2CCC(CCCCNC(=O)c3cc4ccncc4s3)CC2)c1 meas_value=7.24
compound_structure_string=Cc1ccc(F)cc1C(=O)N1CCC(CCCCNC(=O)c2ccc3nccn3c2)CC1 meas_value=7.96
compound_structure_string=Cc1nc(C)c(C(=O)N2CCC(CCCCNC(=O)c3ccc4nccn4c3)CC2)s1 meas_value=7.62
compound_structure_string=Cn1cnc(C(=O)N2CCC(CCCCNC(=O)c3ccc4nccn4c3)CC2)c1 meas_value=7.25
compound_structure_string=O=C(NCCc1ccc(-c2ccccc2)cc1)c1cc2cnccc2[nH]1 meas_value=6.90

Look up pIC50 with Recombinant His-tagged NAMPT (Homo sapiens) for this molecule: `CC(C)c1ccc(C(=O)N2CCC(CCCCNC(=O)c3cc4ccncc4s3)CC2)nc1`
7.05

----------
- target.or.test.system: Recombinant His-tagged NAMPT (Homo sapiens)
- Construct: His; host or cells: E. coli
- experimental.protocol: Biochemical inhibition assay: NAMPT enzymatic reaction, NMN quantified by mass spectrometry
- condition.info: 33 nM NAMPT, 1 μM NAM, 100 μM PRPP, 2.5 mM ATP, 30 minutes at room temperature; read-out: Biochem IC50
// values below are reported IC50
Report as a plain number; the unit nM is understood.

Known IC50 results, listed for orientation:
compound_structure_string=O=C(NCCCCC1CCN(C(=O)c2csc(-c3cccnc3)n2)CC1)c1ccc2nccn2c1 target_or_test_system="Recombinant His-tagged NAMPT (Homo sapiens)" measured_parameter=IC50 units_label=nM meas_value=61.1
compound_structure_string=O=C(NCCCC1CCN(C(=O)c2ccccc2)CC1)c1cc2cnccc2[nH]1 target_or_test_system="Recombinant His-tagged NAMPT (Homo sapiens)" measured_parameter=IC50 units_label=nM meas_value=126
compound_structure_string=COc1cccc(C(=O)N2CCC(CCCCNC(=O)c3cc4ccncc4s3)CC2)c1 target_or_test_system="Recombinant His-tagged NAMPT (Homo sapiens)" measured_parameter=IC50 units_label=nM meas_value=26.1

Please look at the following compound next.
Suppose we examine the compound `CSc1ncccc1C(=O)N1CCC(CCCCNC(=O)c2cc3cnccc3[nH]2)CC1` ; what IC50 value has been reported?
8.3

----------
// values below are reported pIC50
- Test system: A2780 cells
- experimental.protocol: In-vitro cell proliferation assay (SRB, 72 hours)
- Type: cell-based
- condition.info: Homo sapiens, sulforhodamine B (SRB) assay
A value of pIC50 is the negative decimal logarithm of a concentration given in moles per litre.

compound_structure_string=O=C(NCCCCC1CCN(C(=O)c2cc(Cl)cc(Cl)c2)CC1)c1ccc2nccn2c1 target_or_test_system="A2780 cells" meas_value=7.48
compound_structure_string=Cc1ncsc1C(=O)N1CCC(CCCCNC(=O)c2ccc3nccn3c2)CC1 target_or_test_system="A2780 cells" meas_value=9.10
compound_structure_string=CSc1ncccc1C(=O)N1CCC(CCCCNC(=O)c2cc3ccncc3s2)CC1 target_or_test_system="A2780 cells" meas_value=8.85
compound_structure_string=COc1ccc(C(=O)N2CCC(CCCCNC(=O)c3ccc4nccn4c3)CC2)cc1 target_or_test_system="A2780 cells" meas_value=7.24
compound_structure_string=O=C(NCCCCC1CCN(S(=O)(=O)c2cccc(Cl)c2)CC1)c1cc2cnccc2[nH]1 target_or_test_system="A2780 cells" meas_value=7.56
compound_structure_string=O=C(NCCCCC1CCN(C(=O)c2c(F)cccc2F)CC1)c1ccc2nccn2c1 target_or_test_system="A2780 cells" meas_value=8.92

Look up pIC50 with A2780 cells for this compound: `O=C(NCCCCC1CCN(C(=O)c2ccc3c(c2)OCO3)CC1)c1ccc2nccn2c1`
7.53

And then `COc1ccc(C(=O)N2CCC(CCCCNC(=O)c3cc4cnccc4[nH]3)CC2)cc1OC` , what is it?
8.52

And then `CC(C)c1ncoc1C(=O)N1CCC(CCCCNC(=O)c2ccc3nccn3c2)CC1` , what is it?
8.09

And then `O=C(NCCCOC1CCN(C(=O)c2ccccc2F)CC1)c1cc2cnccc2[nH]1` , what is it?
6.75

And then `COc1ccc(C(=O)N2CCC(CCCCNC(=O)c3cc4cnccc4[nH]3)CC2)c(OC)c1` , what is it?
8.48

And then `COc1ccc(OC)c(C(=O)N2CCC(CCCCNC(=O)c3cc4cnccc4[nH]3)CC2)c1` , what is it?
8.66

And then `COCc1ccc(C(=O)N2CCC(CCCCNC(=O)c3cc4cnccc4[nH]3)CC2)nc1` , what is it?
7.85

----------
- target.or.test.system: Recombinant His-tagged NAMPT (Homo sapiens)
- Construct: His; host or cells: E. coli
- experimental.protocol: Biochemical inhibition assay: NAMPT enzymatic reaction, NMN quantified by mass spectrometry
- condition.info: 33 nM NAMPT, 1 μM NAM, 100 μM PRPP, 2.5 mM ATP, 30 minutes at room temperature; read-out: Biochem IC50
measured.parameter: pIC50
A value of pIC50 is the negative decimal logarithm of a concentration given in moles per litre.

compound_structure_string=O=C(NCCCCC1CCN(C(=O)c2ccc(C(F)(F)F)cc2)CC1)c1ccc2nccn2c1 measured_parameter=pIC50 meas_value=6.82
compound_structure_string=COc1ncc(Cl)cc1C(=O)N1CCC(CCCCNC(=O)c2cc3ccncc3s2)CC1 measured_parameter=pIC50 meas_value=7.77
compound_structure_string=COc1ccccc1C(=O)N1CCC(CCCCNC(=O)c2cc3ccncc3s2)CC1 measured_parameter=pIC50 meas_value=8.11

Suppose we examine the compound `O=C(NCCCCC1CCN(C(=O)c2ccc(OC(F)F)cc2)CC1)c1cc2ccncc2s1` ; what pIC50 value has been reported?
7.11

And then `Cc1ncccc1C(=O)N1CCC(CCCCNC(=O)c2cc3cnccc3[nH]2)CC1` , what is it?
7.67

And then `Cc1ccc(C(=O)N2CCC(CCCCNC(=O)c3ccc4nccn4c3)CC2)cn1` , what is it?
7.62

And then `O=C(NCCCCC1CCN(C(=O)c2cccc(F)c2F)CC1)c1cc2ccncc2s1` , what is it?
8.17

And then `O=C(NCCCCC1CCN(C(=O)c2cccnc2)CC1)c1ccc2nccn2c1` , what is it?
7.90

And then `O=C(NCCCCC1CCN(C(=O)c2ccc(F)cn2)CC1)c1cc2cnccc2[nH]1` , what is it?
7.24

----------
- Tested on: A2780 cells
- experimental.protocol: In-vitro cell proliferation assay (SRB, 72 hours)
- Format: cell-based
- condition.info: Homo sapiens, sulforhodamine B (SRB) assay
- Procedure: In-Vitro Cell Proliferation Assay After overnight incubation at 37° C. and 5% CO2, the compound titrations were performed in a separate dilution plate by serially diluting the compounds in DMSO to make a 1000× stock. […] The number of viable cells was then assessed using sulforhodamine B (SRB) assay. […] The plates were then read in a microplate reader at an absorbance of 570 nm. […]
measured.parameter: IC50

Known IC50 results, listed for orientation:
compound_structure_string=O=C(NCCCCC1CCN(C(=O)c2ccc(F)cc2)CC1)c1cc2ccncc2s1 meas_value="100 to 1000 nM"
compound_structure_string=Cc1cnc(C(=O)N2CCC(CCCCNC(=O)c3cc4cnccc4[nH]3)CC2)cn1 meas_value="23.8 nM"
compound_structure_string=O=C(NCCCCC1CCN(C(=O)c2csc(-c3cccnc3)n2)CC1)c1ccc2nccn2c1 meas_value="67 nM"

Please look at the following molecule next.
Suppose we examine the molecule `Cc1nc(CC(=O)N2CCC(CCCCNC(=O)c3ccc4nccn4c3)CC2)cs1` ; what IC50 value has been reported?
28 nM

----------
- System: A2780 cells
- experimental.protocol: In-vitro cell proliferation assay (SRB, 72 hours)
- Assay type: cell-based
- condition.info: Homo sapiens, sulforhodamine B (SRB) assay
measured.parameter: IC50

Known IC50 results, listed for orientation:
compound_structure_string=O=C(NCCCCC1CCN(C(=O)c2ccc(C(F)(F)F)cc2)CC1)c1ccc2nccn2c1 meas_value="100 to 1000 nM"
compound_structure_string=CC(C)c1ccc(C(=O)N2CCC(CCCCNC(=O)c3cc4ccncc4s3)CC2)cn1 meas_value="100 to 1000 nM"
compound_structure_string=Cc1ccc(C(=O)N2CCC(CCCCNC(=O)c3cc4ccncc4s3)CC2)cc1F meas_value="100 to 1000 nM"

Suppose we examine the molecule `O=C(NCCCCC1CCN(C(=O)c2ccc(Cl)cc2)CC1)c1cc2ccncc2s1` ; what IC50 value has been reported?
1000 to 10000 nM

And then `CC(C)c1ccc(C(=O)N2CCC(CCCCNC(=O)c3cc4ccncc4s3)CC2)nc1` , what is it?
100 to 1000 nM
